- assayedSystem: human glucagon receptor (human, UniProt P47871 26-477)
- Sequence (P47871 26-477): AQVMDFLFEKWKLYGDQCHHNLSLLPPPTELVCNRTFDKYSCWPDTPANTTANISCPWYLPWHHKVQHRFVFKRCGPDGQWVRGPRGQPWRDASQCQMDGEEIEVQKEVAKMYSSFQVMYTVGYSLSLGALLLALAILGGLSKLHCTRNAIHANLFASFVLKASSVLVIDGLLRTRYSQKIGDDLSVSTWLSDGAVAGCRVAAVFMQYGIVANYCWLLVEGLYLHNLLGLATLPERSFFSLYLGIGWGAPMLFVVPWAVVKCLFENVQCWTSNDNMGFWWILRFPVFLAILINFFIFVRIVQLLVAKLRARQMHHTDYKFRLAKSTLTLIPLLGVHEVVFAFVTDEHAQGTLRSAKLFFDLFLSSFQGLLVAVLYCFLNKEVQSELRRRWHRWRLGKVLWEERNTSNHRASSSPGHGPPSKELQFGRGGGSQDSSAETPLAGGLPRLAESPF
- assayName: cell-based or functional assay
Where no end group is shown, it is not given here. [ ]: non-standard residue; d: D form. (mPEG)2 40 kDa = C3 = Cys(mPEG)240kDa, branched (mPEG)2, 40 kDa; Aib = CC(C)(N)C(=O)O
Note: every record was labeled by where its % Activation of GCGR sits among band A (below 50%), band B (50% to below 70%), band C (70% or more)

{"binder": "HXQGTFTSDYSKYLDSRRAQDFVQWLMNTKRNRNNIAC (Aib at position 2; C3 = Cys(mPEG)240kDa (branched (mPEG)2, 40 kDa) at position 38; C-terminal amide) [OXM69]", "answerLabel": "band A"}
{"binder": "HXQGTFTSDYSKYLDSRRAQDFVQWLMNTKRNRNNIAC (Aib at position 2; C2 = Cys(mPEG)20kDa at position 38; C-terminal amide) [OXM68]", "answerLabel": "band B"}
{"binder": "HSQGTFTSDYSKYLDSRRAQDFVQWLMNTKRNRNNIAC (D-Ser at position 2; C2 = Cys(mPEG)20kDa at position 38; C-terminal amide) [OXM34]", "answerLabel": "band B"}
{"binder": "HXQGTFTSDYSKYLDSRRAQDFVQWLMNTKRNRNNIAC (not fully specified; Aib at position 2; methionine sulfoxide at position 27; C3 = Cys(mPEG)240kDa (40 kDa) at position 38; C-terminal amide) [OXM99]", "answerLabel": "band B"}
{"binder": "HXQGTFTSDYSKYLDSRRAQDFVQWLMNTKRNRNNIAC (α-aminoisobutyric acid (Aib) at position 2; C1 = Cys(mPEG)5kDa at position 38; C-terminal amide) [OXM67]", "answerLabel": "band C"}
{"binder": "H[Aib]QGTFTSDYSKYLDSRRAC((mPEG)2 40 kDa)DFVQWLMNTKRNRNNIA-NH2 [OXM103]", "answerLabel": "band C"}
{"binder": "H[Aib]QGTFTSDYSKYLDSRRAQC((mPEG)2 40 kDa)FVQWLMNTKRNRNNIA-NH2 [OXM105]", "answerLabel": "band A"}
{"binder": "HXQGTFTSDYSKYLDSRRAQDFVCWLMNTKRNRNNIA (Aib at position 2; C3 = Cys(mPEG)240kDa (40 kDa) at position 24; methionine sulfoxide at position 27; C-terminal amide) [OXM107]", "answerLabel": "band A"}
{"binder": "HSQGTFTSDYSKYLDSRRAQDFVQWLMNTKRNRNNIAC (D-Ser at position 2; C1 = Cys(mPEG)5kDa at position 38; C-terminal amide) [OXM33]", "answerLabel": "band C"}
{"binder": "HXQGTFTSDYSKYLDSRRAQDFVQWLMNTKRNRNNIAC (Aib at position 2; methionine sulfoxide at position 27; C6 = Cys(mPEG)260kDa (60 kDa) at position 38; C-terminal amide) [OXM100]", "answerLabel": "band A"}
